molecular target: EGFR (Homo sapiens (Human))
Structures can show the parent of a compound that is named as a salt.
value.type: IC50

Query block: State its IC50 on EGFR (Homo sapiens (Human)): Cc1cc(Nc2ncnc3cnc(N4CCN(C)[C@H](C)C4)nc23)ccc1Oc1ccc2c(c1)ncn2C [Example 281]
Result block: ≥ 10 µM

Query block: Return IC50 measured with EGFR (Homo sapiens (Human)) given this compound: Cc1cc(Nc2ncnc3cnc(N4CCO[C@H]5C[C@H]54)nc23)ccc1Oc1ccc2c(c1)ncn2C (single isomer, unassigned) [Example 60a]
Result block: 8.28 µM

Query block: Provide the documented IC50 with EGFR (Homo sapiens (Human)) as the system for Cc1cc(Nc2ncnc3cnc(N4CC(O)(C(F)F)C4)nc23)ccc1Oc1ccc2c(c1)ncn2C [Example 160, hydrochloride]
Result block: 6.76 µM

Query block: Param readout= IC50; system= EGFR (Homo sapiens (Human)); entry= O[C@@H]1C[C@H]2C[C@@H]1CN2c1ncc2ncnc(Nc3ccc(Oc4ccn5ncnc5c4)c(Cl)c3)c2n1 [Example 332] ; returns value.
Result block: ≥ 10 µM

Query block: Query IC50 on EGFR (Homo sapiens (Human)) for Cn1cnc2cc(Oc3ccc(Nc4ncnc5cnc(N6CCN7CCOC[C@@H]7C6)nc45)cc3Cl)ccc21.O=C(O)C(F)(F)F.O=C(O)C(F)(F)F [Example 151, bis(2,2,2-trifluoroacetate)]
Result block: ≥ 10 µM

Query block: What is its IC50 for EGFR (Homo sapiens (Human))? Entry: Cc1cc(Nc2ncnc3cnc(O[C@H]4CN(C)CC[C@@H]4F)nc23)ccc1Oc1ccc2c(c1)ncn2C [Example 296]
Result block: ≥ 10 µM

* * *

# pIC50 measurements, system: ErbB2 WT (Homo sapiens (Human))
# Sequence (P04626 23-1255): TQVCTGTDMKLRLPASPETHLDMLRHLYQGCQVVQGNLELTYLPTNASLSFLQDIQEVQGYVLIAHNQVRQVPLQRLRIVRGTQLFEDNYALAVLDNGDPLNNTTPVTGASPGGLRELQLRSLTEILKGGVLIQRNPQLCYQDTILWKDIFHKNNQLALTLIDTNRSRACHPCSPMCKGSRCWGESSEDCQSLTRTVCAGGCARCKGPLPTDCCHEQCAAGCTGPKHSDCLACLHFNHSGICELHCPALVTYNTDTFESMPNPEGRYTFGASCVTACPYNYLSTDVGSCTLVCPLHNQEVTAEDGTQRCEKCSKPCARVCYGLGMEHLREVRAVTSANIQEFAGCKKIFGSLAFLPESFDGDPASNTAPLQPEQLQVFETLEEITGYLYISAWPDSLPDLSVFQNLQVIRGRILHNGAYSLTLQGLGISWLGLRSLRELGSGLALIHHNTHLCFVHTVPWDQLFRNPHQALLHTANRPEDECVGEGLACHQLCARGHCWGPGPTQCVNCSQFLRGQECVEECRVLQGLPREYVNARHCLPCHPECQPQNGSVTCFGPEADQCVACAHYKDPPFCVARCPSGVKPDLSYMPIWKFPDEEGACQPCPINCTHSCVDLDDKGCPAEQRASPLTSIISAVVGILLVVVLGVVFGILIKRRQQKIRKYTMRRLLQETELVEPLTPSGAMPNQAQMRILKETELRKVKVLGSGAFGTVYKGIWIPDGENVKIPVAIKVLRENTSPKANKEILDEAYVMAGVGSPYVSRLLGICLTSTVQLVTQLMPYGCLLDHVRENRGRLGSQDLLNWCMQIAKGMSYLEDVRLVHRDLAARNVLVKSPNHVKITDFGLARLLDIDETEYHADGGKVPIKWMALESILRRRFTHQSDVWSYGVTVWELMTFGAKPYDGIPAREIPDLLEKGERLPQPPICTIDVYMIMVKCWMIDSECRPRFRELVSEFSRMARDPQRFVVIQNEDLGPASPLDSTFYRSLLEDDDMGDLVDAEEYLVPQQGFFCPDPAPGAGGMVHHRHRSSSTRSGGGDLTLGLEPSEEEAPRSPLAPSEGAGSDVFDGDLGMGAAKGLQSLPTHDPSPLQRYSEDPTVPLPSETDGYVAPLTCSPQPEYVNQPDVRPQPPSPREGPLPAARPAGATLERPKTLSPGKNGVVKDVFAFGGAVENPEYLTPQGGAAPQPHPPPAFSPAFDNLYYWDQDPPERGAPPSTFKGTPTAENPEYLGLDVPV
Please note pIC50 is a logarithmic value: minus log10 of concentration in mol/L. Answer with that number alone.

Sample answers from the record:
compound | pIC50
Cc1cc(Nc2ncnc3cnc(N(C)CC(C)(C)O)nc23)c(F)cc1Oc1ccc2c(c1)ncn2C | 7.43
Cc1cc(Nc2ncnc3cnc(-c4cnsc4)nc23)ccc1Oc1ccc2c(c1)ncn2C | 6.57

Query block: Please tell me: pIC50 of `C[C@H]1CN(c2ncc3ncnc(Nc4ccc(Oc5ccn6ncnc6c5)c(Cl)c4)c3n2)CCO1` , system ErbB2 WT (Homo sapiens (Human))?
Result block: 7.49

Query block: Query for ErbB2 WT (Homo sapiens (Human)): what pIC50 does the record show for `Clc1cc(Nc2ncnc3cnc(N4CCN5CCOC[C@@H]5C4)nc23)ccc1Oc1ccn2ncnc2c1` ?
Result block: 7.20

Query block: # value lookup — system ErbB2 WT (Homo sapiens (Human)), readout pIC50, item `Cc1cc(Nc2ncnc3cnc(N4CC[C@@H](C#N)C4)nc23)ccc1Oc1ccn2ncnc2c1`
Result block: 7.43

Query block: Given the entry Cc1cc(Nc2ncnc3cnc(N4CC[C@@](O)(C(F)F)C4)nc23)ccc1Oc1ccc2c(c1)ncn2C (racemic) , what pIC50 was observed with ErbB2 WT (Homo sapiens (Human))?
Result block: 7.78

Query block: Tell me reported pIC50 for `Clc1cc(Nc2ncnc3cnc(N4CCOC5(CC5)C4)nc23)ccc1Oc1ccn2ncnc2c1` , tested with ErbB2 WT (Homo sapiens (Human)).
Result block: 7.44

Query block: Enter reported pIC50 observed with ErbB2 WT (Homo sapiens (Human)) for `Cc1cc(Nc2ncnc3cnc(N4C[C@H]5C[C@@H]4C[C@H]5O)nc23)ccc1Oc1ccc2c(c1)ncn2C`
Result block: 7.44

* * *

molecular target: ErbB2 WT (Homo sapiens (Human))
pIC50: −log10 of the molar value.
Think of 7 as a floor: if pIC50 stands on it or above, it is Satisfied; beneath it, Not satisfied.

A selection of reference data follows.
compound | assayed.target | cat
Cc1cc(Nc2ncnc3cnc(N4CC5(COC5)C4)nc23)ccc1Oc1ccc2c(c1)ncn2C | ErbB2 WT (Homo sapiens (Human)) | Not satisfied
Cc1cc(Nc2ncnc3cnc(N4CC[C@H]4C(F)F)nc23)ccc1Oc1ccn2ncnc2c1 | ErbB2 WT (Homo sapiens (Human)) | Satisfied
Cn1cnc2cc(Oc3ccc(Nc4ncnc5cnc(N6CCC6)nc45)cc3Cl)ccc21.O=C(O)C(F)(F)F [Example 148, 2,2,2-trifluoroacetate] | ErbB2 WT (Homo sapiens (Human)) | Satisfied
Cc1cc(Nc2ncnc3cnc(N[C@H](C)COC(F)(F)F)nc23)ccc1Oc1ccc2c(c1)ncn2C | ErbB2 WT (Homo sapiens (Human)) | Not satisfied
Cc1cc(Nc2ncnc3cnc(N4CC5(C4)CC5(F)F)nc23)ccc1Oc1ccc2c(c1)ncn2C | ErbB2 WT (Homo sapiens (Human)) | Not satisfied
Cc1cc(Nc2ncnc3cnc(N4C[C@@H](O)C5(CC5)C4)nc23)c(Cl)cc1Oc1ccc2c(c1)ncn2C | ErbB2 WT (Homo sapiens (Human)) | Not satisfied
CN(CC(C)(C)O)c1ncc2ncnc(Nc3ccc(Oc4ccn5ncnc5c4)c(Cl)c3)c2n1 | ErbB2 WT (Homo sapiens (Human)) | Satisfied
FC(F)O[C@@H]1CCN(c2ncc3ncnc(Nc4ccc(Oc5ccn6ncnc6c5)c(Cl)c4)c3n2)C1 | ErbB2 WT (Homo sapiens (Human)) | Satisfied
Cc1cc(Nc2ncnc3cnc(N(C)[C@H]4CCOC4)nc23)ccc1Oc1ccc2c(c1)ncn2C | ErbB2 WT (Homo sapiens (Human)) | Satisfied
Cc1cc(Nc2ncnc3cnc(N=S4(=O)CCOCC4)nc23)ccc1Oc1ccc2c(c1)ncn2C | ErbB2 WT (Homo sapiens (Human)) | Satisfied

Query block: Please indicate if the recorded pIC50 for Cc1cc(Nc2ncnc3cnc(N(C)C)nc23)ccc1Oc1ccc2csnc2c1 [Example 49, 2,2,2-trifluoroacetate] meets or exceeds 7.
Result block: Not satisfied

Query block: Hello, I need to know if `Cc1cc(Nc2ncnc3cnc(N4CCC[C@H]4C(F)F)nc23)ccc1Oc1ccc2c(c1)ncn2C` has measured pIC50 not below 7. Thanks!
Result block: Not satisfied

* * *

molecular target: ErbB2 insYVMA (HER2-YVMA, SEQ ID NO: 2) (Homo sapiens, UniProt P04626, INS775YVMA/P1170A); test: biochemical; details: ErbB2 insYVMA enzyme assay; read-out: Assay 1 IC50
Sequence (P04626 with tags, fused parts or gaps INS775YVMA/P1170A limits assumed): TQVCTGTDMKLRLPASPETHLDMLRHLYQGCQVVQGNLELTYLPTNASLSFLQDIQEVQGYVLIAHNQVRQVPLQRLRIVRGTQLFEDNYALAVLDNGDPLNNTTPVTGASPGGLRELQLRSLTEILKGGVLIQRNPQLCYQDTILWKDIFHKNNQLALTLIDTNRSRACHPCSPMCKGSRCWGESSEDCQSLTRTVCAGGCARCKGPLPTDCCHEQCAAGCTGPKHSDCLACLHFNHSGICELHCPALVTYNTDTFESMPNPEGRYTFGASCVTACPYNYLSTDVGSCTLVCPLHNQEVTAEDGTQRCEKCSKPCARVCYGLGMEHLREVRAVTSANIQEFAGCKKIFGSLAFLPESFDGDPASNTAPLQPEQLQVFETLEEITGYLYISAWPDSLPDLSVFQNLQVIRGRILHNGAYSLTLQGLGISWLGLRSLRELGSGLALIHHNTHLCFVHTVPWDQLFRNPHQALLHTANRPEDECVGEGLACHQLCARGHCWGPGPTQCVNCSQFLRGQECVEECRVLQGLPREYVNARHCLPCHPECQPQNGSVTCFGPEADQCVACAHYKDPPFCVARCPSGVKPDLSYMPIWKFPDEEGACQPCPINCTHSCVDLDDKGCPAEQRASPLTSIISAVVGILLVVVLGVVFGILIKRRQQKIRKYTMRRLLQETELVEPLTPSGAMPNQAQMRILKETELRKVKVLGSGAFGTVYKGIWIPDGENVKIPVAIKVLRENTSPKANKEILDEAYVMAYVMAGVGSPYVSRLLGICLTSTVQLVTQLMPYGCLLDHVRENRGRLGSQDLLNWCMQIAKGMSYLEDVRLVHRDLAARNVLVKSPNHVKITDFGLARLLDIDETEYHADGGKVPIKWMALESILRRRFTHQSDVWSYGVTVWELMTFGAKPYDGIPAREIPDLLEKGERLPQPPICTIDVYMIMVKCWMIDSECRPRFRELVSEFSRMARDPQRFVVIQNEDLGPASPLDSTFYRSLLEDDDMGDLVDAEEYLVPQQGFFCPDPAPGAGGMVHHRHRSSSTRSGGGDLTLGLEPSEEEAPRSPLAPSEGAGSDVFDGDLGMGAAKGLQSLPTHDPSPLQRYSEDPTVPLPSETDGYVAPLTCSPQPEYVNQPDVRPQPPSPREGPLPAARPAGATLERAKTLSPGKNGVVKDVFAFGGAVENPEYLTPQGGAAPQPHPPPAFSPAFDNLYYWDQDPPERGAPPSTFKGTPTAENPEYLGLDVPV
Known IC50 of a selection of molecules

Query block: Which IC50 is listed for Cc1cc(Nc2ncnc3cnc(N4CC[C@@](C)(O)C4)nc23)c(F)cc1Oc1ccc2c(c1)ncn2C [Example 214] ?
Result block: 15.4 nM

Query block: Which value of IC50 has been reported for Cc1cc(Nc2ncnc3cnc(NC(C)C)nc23)ccc1Oc1ccc2c(c1)ncn2C [Example 261] in the records?
Result block: 48.8 nM

Query block: Param item = CC1(C)CN(c2ncc3ncnc(Nc4ccc(Oc5ccn6ncnc6c5)c(Cl)c4)c3n2)CC[C@@H]1O [Example 337] ; retrieve measured IC50.
Result block: 17 nM

Query block: Return reported IC50; argument: Cc1cc(Nc2ncnc3cnc(N4CC[C@@H](C#N)C4)nc23)ccc1Oc1ccc2c(c1)ncn2C [Example 184]
Result block: 11.7 nM

* * *

Below are molecules with their pIC50 as measured on EGFR (Homo sapiens (Human), UniProt P00533).
Sequence (P00533 25-1210): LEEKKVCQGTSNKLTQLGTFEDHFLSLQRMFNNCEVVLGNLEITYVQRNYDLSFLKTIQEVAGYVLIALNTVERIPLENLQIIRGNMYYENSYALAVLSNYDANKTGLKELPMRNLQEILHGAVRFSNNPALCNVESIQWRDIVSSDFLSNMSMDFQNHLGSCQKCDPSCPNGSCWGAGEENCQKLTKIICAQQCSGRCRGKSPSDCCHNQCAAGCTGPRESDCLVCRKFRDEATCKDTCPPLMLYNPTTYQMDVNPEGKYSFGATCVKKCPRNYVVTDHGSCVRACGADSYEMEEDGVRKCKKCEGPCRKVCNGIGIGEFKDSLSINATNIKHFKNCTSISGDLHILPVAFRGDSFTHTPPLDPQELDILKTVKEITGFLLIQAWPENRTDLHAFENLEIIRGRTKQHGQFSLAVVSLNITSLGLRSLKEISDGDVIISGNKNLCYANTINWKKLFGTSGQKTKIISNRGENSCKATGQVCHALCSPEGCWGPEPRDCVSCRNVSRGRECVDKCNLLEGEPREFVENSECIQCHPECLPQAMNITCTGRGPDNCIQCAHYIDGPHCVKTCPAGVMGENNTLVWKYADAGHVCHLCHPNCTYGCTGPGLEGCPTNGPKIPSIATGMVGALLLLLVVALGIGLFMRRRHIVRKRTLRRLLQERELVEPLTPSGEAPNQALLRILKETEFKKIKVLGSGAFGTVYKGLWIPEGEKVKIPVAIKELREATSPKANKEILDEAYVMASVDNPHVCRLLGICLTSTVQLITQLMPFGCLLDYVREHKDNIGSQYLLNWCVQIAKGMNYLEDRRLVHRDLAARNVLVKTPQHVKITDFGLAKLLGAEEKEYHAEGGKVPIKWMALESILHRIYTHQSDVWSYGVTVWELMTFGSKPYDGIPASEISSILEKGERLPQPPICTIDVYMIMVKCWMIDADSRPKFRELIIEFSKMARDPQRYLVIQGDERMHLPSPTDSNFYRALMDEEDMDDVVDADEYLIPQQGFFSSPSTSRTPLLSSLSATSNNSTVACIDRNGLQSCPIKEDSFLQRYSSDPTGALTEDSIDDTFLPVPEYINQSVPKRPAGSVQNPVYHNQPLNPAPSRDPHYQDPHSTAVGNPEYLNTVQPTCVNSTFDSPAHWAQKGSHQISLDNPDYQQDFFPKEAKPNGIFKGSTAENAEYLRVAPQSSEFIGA
# log scale: pIC50 equals minus log10 of the concentration in mol/L

The following molecules have reported results that may help.
molecule | assayed.target | value.type | recorded.value
Cc1cc(Nc2ncnc3cnc(N4CCN[C@@H](C(F)(F)F)C4)nc23)ccc1Oc1ccn2ncnc2c1 [Example 421] | EGFR (Homo sapiens (Human), UniProt P00533) | pIC50 | 5.31
Cc1cc(Nc2ncnc3cnc(N[C@@H]4CCOC4)nc23)ccc1Oc1ccc2c(c1)ncn2C [Example 275] | EGFR (Homo sapiens (Human), UniProt P00533) | pIC50 | 5.78
Cc1cc(Nc2ncnc3cnc(N4CCN(C5COC5)CC4)nc23)ccc1Oc1ccc2c(c1)ncn2C [Example 159] | EGFR (Homo sapiens (Human), UniProt P00533) | pIC50 | 5.13
Cc1cc(Nc2ncnc3cnc(N(C)CCC(C)(C)O)nc23)ccc1Oc1ccc2c(c1)ncn2C [Example 102] | EGFR (Homo sapiens (Human), UniProt P00533) | pIC50 | 5.56
FC(F)[C@H]1CCN1c1ncc2ncnc(Nc3ccc(Oc4ccn5ncnc5c4)c(Cl)c3)c2n1 [Example 410] | EGFR (Homo sapiens (Human), UniProt P00533) | pIC50 | 5.20
Cc1cc(Nc2ncnc3cnc(N[C@@H]4CCNC[C@@H]4F)nc23)ccc1Oc1ccc2c(c1)ncn2C [Example 83] | EGFR (Homo sapiens (Human), UniProt P00533) | pIC50 | 5.25
Cc1cc(Nc2ncnc3cnc(S(C)(=O)=O)nc23)ccc1Oc1ccc2c(C)onc2c1 [Example 5] | EGFR (Homo sapiens (Human), UniProt P00533) | pIC50 | 5.38

Now for another entry.
Query block: Requested read-out pIC50, target or system EGFR (Homo sapiens (Human), UniProt P00533), entry [2H]C([2H])([2H])Nc1ncc2ncnc(Nc3ccc(Oc4ccc5c(c4)ncn5C)c(C)c3)c2n1 [Example 65]
Result block: 5.52
